Test Details: Acute intraperitoneal LD50 in mice
Setup Conditions: mouse, in vivo, ip, LD50, acute, per body weight
Quantity Name: LD50

[ask] Provide LD50 value for the following compound: C=Cc1cc(OC)c2c(c1)c(=O)oc1c2cc(OC)c2c(O)ccc(C3OC(C)C(OC(C)=O)C(N(C)C)C3O)c21 (stereo not shown) [ravidomycin]
[reply] > 400 mg/kg
